Ref: PubChem BioAssay

assay: SU-DIPG-XXV glioma cell viability, MIPE5.0 library, qHTS (AID 1347068);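 on IC50: cells exposed to compound for 48 hours before viability readout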
Results filed as inconclusive are left out. Activity calls are given as the source filed them. Cut-off not given; nearly all actives show IC50 up to about 30 µM.
Form entry, call: pick from 1.0 for active, 0.0 for inactive

IN: Please indicate how the test categorized `N#Cc1c(O)c2c(-c3ccc(-c4ccccc4O)cc3)csc2[nH]c1=O` .
OUT: 0.0

IN: Please indicate how the test categorized CC[C@]1(O)CC2CN(CCc3c([nH]c4ccccc34)[C@@](C(=O)OC)(c3cc4c(cc3OC)N(C)[C@H]3[C@@](O)(C(=O)OC)[C@H](OC(C)=O)[C@]5(CC)C=CCN6CC[C@]43[C@@H]65)C2)C1 (stereo not given in full) .
OUT: 1.0

IN: Please indicate how the test categorized `Cc1ccc(NC(=O)c2cccc(N(C)C)c2)cc1NC(=O)c1ccc(O)cc1` .
OUT: 0.0

IN: Please indicate how the test categorized CCN(CC)CCCC(C)Nc1nc(C)cc(Nc2ccc3nc(C)cc(N)c3c2)n1 (stereo not given) .
OUT: 0.0

IN: Please indicate how the test categorized `O=c1cc(N2CCOCC2)oc2c(-c3ccccc3)cccc12` .
OUT: 0.0

IN: Please indicate how the test categorized `O=C(O)CCc1ccc(NCc2cccc(Oc3ccccc3)c2)cc1` .
OUT: 0.0

IN: Please indicate how the test categorized `C[C@H]1COC2=C1C(=O)C(=O)c1c2ccc2c1CCCC2(C)C` .
OUT: 0.0

IN: Please indicate how the test categorized `O=C1C(c2c(O)[nH]c3ccccc23)=Nc2ccccc21` .
OUT: 0.0

IN: Please indicate how the test categorized `O=S(=O)(NCCNC/C=C/c1ccc(Br)cc1)c1cccc2cnccc12` .
OUT: 0.0

IN: Please indicate how the test categorized `COc1ccc(Nc2nccc(NCCO)n2)cc1` .
OUT: 0.0

----------
test: ovarian cancer cell viability with rucaparib, profiling panel, oncology-focused library, rucaparib conditional (AID 1508598); details: patient-derived ovarian cancer cells, CellTiter-Glo viability, 144 h; at 1.25 µM; OCI-P5x cells; without rucaparib; stronger effect = lower value
// boundary case: viability equal to 90% maps to Not met; strictly smaller maps to Met

IN: In plain terms, does `CC(C)c1onc(-c2c(Cl)cccc2Cl)c1COc1ccc(/C=C/c2cccc(C(=O)O)c2)c(Cl)c1` come in under 90% for viability?
OUT: Not met

IN: In plain terms, does `O=c1[nH]c(-c2ccc(C(F)(F)F)cc2)nc2c1CSCC2` come in under 90% for viability?
OUT: Not met

IN: In plain terms, does `C[C@H](NC(=O)Cc1cc(F)cc(F)c1)C(=O)N[C@H](C(=O)OC(C)(C)C)c1ccccc1` come in under 90% for viability?
OUT: Met

IN: In plain terms, does CC(NC(=O)c1ccccc1N=Cc1c(O)ccc2ccccc12)c1ccccc1 (stereo unspecified) come in under 90% for viability?
OUT: Not met

----------
biological target: Calcium-activated potassium channel subunit alpha-1 (Homo sapiens) + Leucine-rich repeat-containing protein 26 (Homo sapiens) (UniProt Q12791+Q2I0M4); assay: modulators of BK channel variants, profiling panel, selectivity assay, cell-based, U2OS BacMam, thallium flux, beta subunits (AID 1259406); conditions: F380Y/Slo1WT/gamma1, at 30 µM;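 further: initial slope of Thallos dye fluorescence rise after thallium is added; log ratio against the mean of 0.3% DMSO vehicle wells on the same plate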
Sequence (Q2I0M4 whole entry, looked up, one chain of several): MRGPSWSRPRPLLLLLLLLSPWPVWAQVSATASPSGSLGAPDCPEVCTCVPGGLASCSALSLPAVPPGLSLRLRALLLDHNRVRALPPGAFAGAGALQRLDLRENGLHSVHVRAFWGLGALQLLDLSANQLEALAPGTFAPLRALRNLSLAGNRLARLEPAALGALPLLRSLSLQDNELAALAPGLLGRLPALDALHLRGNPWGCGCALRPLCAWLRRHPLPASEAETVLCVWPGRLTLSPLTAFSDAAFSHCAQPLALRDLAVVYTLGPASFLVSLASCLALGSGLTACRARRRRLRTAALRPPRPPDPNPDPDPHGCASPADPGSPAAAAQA
The source made the active and inactive calls.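 Rule for the calls: active = thallium flux through the channel raised or lowered by more than 3 SD from vehicle-only wells, actives on both sides; inactive = the rest.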
Form entry, call: pick from YES for active, NO for inactive

IN: Please indicate how the test categorized `CC(C)(C)c1ccc(Oc2ccc(NC(=O)Nc3cccs3)cn2)cc1` .
OUT: NO

IN: Please indicate how the test categorized `CC(C)C[C@H](NC(=O)[C@@H](O)[C@H](N)Cc1ccccc1)C(=O)O` .
OUT: NO

IN: Please indicate how the test categorized `Cc1nn(-c2ccccc2)nc1C(=O)NNC(=O)CSCc1cccc2ccccc12` .
OUT: NO

IN: Please indicate how the test categorized Cc1cc(S(=O)(=O)c2ccc(Cl)cc2)sc1C(=O)NCC(O)c1ccccc1 (configuration not stated) .
OUT: NO

IN: Please indicate how the test categorized `CSC(NCc1cccnc1)=C(C#N)S(=O)(=O)c1ccc(Cl)cc1` .
OUT: NO

IN: Please indicate how the test categorized `COC(=O)c1cncc(Br)c1` .
OUT: NO

IN: Please indicate how the test categorized `O=S(=O)(NCc1ccc2c(c1)CCO2)c1cccs1` .
OUT: NO

IN: Please indicate how the test categorized `Clc1cc(Cl)c(NN=Cc2cc(C#Cc3ccccc3)cs2)c(Cl)c1` .
OUT: NO

IN: Please indicate how the test categorized `COCCCNC(=O)C(C#N)=CN(C)C` .
OUT: NO

IN: Please indicate how the test categorized `N#CC(NCc1ccccc1Cl)=C(C#N)NCc1c(F)cccc1Cl` .
OUT: YES

IN: Please indicate how the test categorized `O=C(Nc1csc(Cc2c(Cl)cccc2Cl)n1)NN1CCOCC1` .
OUT: NO

IN: Please indicate how the test categorized `C=CC1=C(C(=O)O)N2C(=O)[C@@H](NC(=O)C(=NO)c3csc(N)n3)[C@H]2SC1` .
OUT: NO

IN: Please indicate how the test categorized `O=C(O)C[C@H](O)C[C@H](O)/C=C/c1c(C2CC2)nc2ccccc2c1-c1ccc(F)cc1` .
OUT: YES

IN: Please indicate how the test categorized `C=C1/C(=C\C=C2/CCC[C@]3(C)[C@@H]([C@H](C)CCCC(C)(C)O)CC[C@@H]23)C[C@@H](O)C[C@@H]1O` .
OUT: NO

IN: Please indicate how the test categorized `O=C1N=C(O)CN1N=Cc1ccc(-c2ccc([N+](=O)[O-])cc2)o1` .
OUT: NO

IN: Please indicate how the test categorized `Cc1cnc(N)c(C)n1` .
OUT: NO

IN: Please indicate how the test categorized COCC1=C(C(=O)OC(C)OC(=O)OC(C)C)N2C(=O)[C@@H](NC(=O)C(=NOC)c3csc(N)n3)[C@H]2SC1 (some centres not stated) .
OUT: NO

IN: Please indicate how the test categorized `CCC(C)(C)N=C(NC#N)Nc1cccnc1` .
OUT: NO

IN: Please indicate how the test categorized `Clc1ccc(-c2nc(-c3cnccn3)no2)cc1` .
OUT: NO

IN: Please indicate how the test categorized OC(Cc1ccccc1)(c1ccccc1)c1ccccc1N=Cc1ccc2c(c1)OCO2 (configuration not stated) .
OUT: NO

IN: Please indicate how the test categorized `O=C(OCCSc1sccc1[N+](=O)[O-])c1ccc(Cl)cc1` .
OUT: NO

IN: Please indicate how the test categorized `CCc1nc2ccccc2nc1N1CCN(S(=O)(=O)c2ccc(Cl)cc2)CC1` .
OUT: NO

----------
I'd appreciate it if you could supply inhibition values for the items below.
assay: UWB1.289 ovarian carcinoma cell growth inhibition, synergistic combos for chromothripsis tumors, BGB or cisplatin combos (AID 1671456); details: UWB1.289 ovarian carcinoma cells, measured here: inhibition with cisplatin combination, at 0.05 µM, stronger effect = higher value;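 further: cells exposed to compound for four days; 0% = vehicle DMSO and 100% = killing by high DMSO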
Answer in %, number only, no unit symbol.

IN: Identify measured inhibition corresponding to `O=c1cc(-c2cccc3c2Sc2ccccc2S3)oc(N2CCOCC2)c1`
OUT: -10.7

IN: Identify measured inhibition corresponding to `CCc1c2c(nc3ccc(O)cc13)-c1cc3c(c(=O)n1C2)COC(=O)[C@]3(O)CC`
OUT: 49.3

IN: Identify measured inhibition corresponding to `O=C(Nc1ccncc1)c1cc([N+](=O)[O-])ccc1Cl`
OUT: -17

IN: Identify measured inhibition corresponding to `Cc1c(-c2cnccn2)ssc1=S`
OUT: 3.36

IN: Identify measured inhibition corresponding to `CO[C@H]1/C=C/O[C@@]2(C)Oc3c(C)c(O)c4c(O)c(c(C=NN5CCN(C)CC5)c(O)c4c3C2=O)NC(=O)/C(C)=C\C=C\[C@H](C)[C@H](O)[C@@H](C)[C@@H](O)[C@@H](C)[C@H](OC(C)=O)[C@@H]1C`
OUT: -2.06

IN: Identify measured inhibition corresponding to `O=C(Nc1ccccc1)c1ccccc1O`
OUT: -5.75

IN: Identify measured inhibition corresponding to `CC(C)N=c1cc2n(-c3ccc(Cl)cc3)c3ccccc3nc-2cc1Nc1ccc(Cl)cc1`
OUT: -17.6

IN: Identify measured inhibition corresponding to NC(=O)c1ncn(C2OC(CO)C(O)C2O)n1 (stereo not drawn)
OUT: -5.32
